So I've got a bunch of molecules here, and I need their pIC50 values.
- targetOfAssay: mouse VISTA (mVISTA) (Mus musculus, UniProt Q9D659)
- Construct: expressed in transfected cells; host or cells: Human embryonic kidney 293T cells
- Sequence (Q9D659 33-308): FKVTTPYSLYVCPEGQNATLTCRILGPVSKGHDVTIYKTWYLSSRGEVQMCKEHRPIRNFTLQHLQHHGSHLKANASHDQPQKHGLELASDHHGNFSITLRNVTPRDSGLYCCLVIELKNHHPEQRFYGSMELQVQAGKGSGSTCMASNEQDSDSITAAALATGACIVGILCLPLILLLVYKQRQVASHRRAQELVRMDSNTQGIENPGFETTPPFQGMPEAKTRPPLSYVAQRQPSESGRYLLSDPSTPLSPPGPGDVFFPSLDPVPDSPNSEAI
- assayExplanation: Cell-Based Binding High-Content Assay For mVISTA (HC CBA mVISTA)
- cond: cell-based binding high-content assay, mVISTA; the 16th table; read-out: HC CBA mVISTA IC50
Positions of bridges follow the written chain, without caps; N, C: chain ends. Non-standard residues stand in square brackets, D forms with d. Residues, ends and D or L forms follow the SMILES beside them. 2Nal = N[C@@H](Cc1ccc2ccccc2c1)C(=O)O; Tic = O=C(O)[C@@H]1Cc2ccccc2CN1; Cit = NC(=O)NCCC[C@H](N)C(=O)O; Ahp(2) = CCCCC[C@H](N)C(=O)O; NHexGly = CCCCCCNCC(=O)O; Nle = CCCC[C@H](N)C(=O)O; Orn = NCCC[C@H](N)C(=O)O
// pIC50: -log10(molar conc.)

Problem: Entry under review: CCCCCCN1CC(=O)N[C@@H](Cc2ccc(O)cc2)C(=O)N[C@@H](CCCC)C(=O)N[C@@H](CC(N)=O)C(=O)N[C@@H](CCCNC(=N)N)C(=O)N[C@@H](CC(C)C)C(=O)N[C@@H](CCCCC)C(=O)N2CCC[C@H]2C(=O)N[C@@H](C(C)C)C(=O)N[C@@H](CC(=O)O)C(=O)N[C@H](C(=O)N[C@@H](CC(N)=O)C(N)=O)CSCC(=O)N[C@@H](Cc2ccc3ccccc3c2)C(=O)N[C@@H](Cc2ccc(O)cc2)C(=O)N[C@@H](CC(=O)O)C1=O [Ex 1311] ({CH2CO}-[2Nal]YD[NHexGly]Y[Nle]NRL[Ahp(2)]PVDCN-NH2; thioether N-14) . Reported pIC50?
Solution: 8.08

Problem: Entry under review: CCCCCCN1CC(=O)N[C@@H](Cc2ccc(O)cc2)C(=O)N[C@@H](CCCC)C(=O)N[C@@H](CC(N)=O)C(=O)N[C@@H](CCCNC(=N)N)C(=O)N[C@@H](CC(C)C)C(=O)N[C@@H](CCCCC)C(=O)N2CCC[C@H]2C(=O)N[C@@H](C(C)C)C(=O)N[C@@H](CO)C(=O)N[C@H](C(=O)NCC(=O)O)CSCC(=O)N[C@@H](Cc2ccc3ccccc3c2)C(=O)N[C@@H](Cc2ccc(O)cc2)C(=O)N[C@@H](CC(=O)O)C1=O [Ex 1272] ({CH2CO}-[2Nal]YD[NHexGly]Y[Nle]NRL[Ahp(2)]PVSCG-OH; thioether N-14) . Reported pIC50?
Solution: 8.55

Problem: Entry under review: CCCCCCN1CC(=O)N[C@@H](Cc2ccc(O)cc2)C(=O)N[C@@H](CCCC)C(=O)N[C@@H](CC(=O)O)C(=O)N[C@@H](CCCN)C(=O)N[C@@H](CC(C)C)C(=O)N[C@@H](CCCCC)C(=O)N2CCC[C@H]2C(=O)N[C@@H](C(C)C)C(=O)N[C@@H](CC(=O)O)C(=O)N[C@H](C(=O)N[C@@H](CC(=O)O)C(N)=O)CSCC(=O)N[C@@H](Cc2ccc3ccccc3c2)C(=O)N[C@@H](Cc2ccc(O)cc2)C(=O)N[C@@H](CC(=O)O)C1=O [Ex 1268] ({CH2CO}-[2Nal]YD[NHexGly]Y[Nle]D[Orn]L[Ahp(2)]PVDCD-NH2; thioether N-14) . Reported pIC50?
Solution: 8.01

Problem: Entry under review: CCCCCCN1CC(=O)N[C@@H](Cc2ccc(O)cc2)C(=O)N[C@@H](C(C)C)C(=O)NCC(=O)N[C@@H](CCCNC(=N)N)C(=O)N[C@@H](CC(C)C)C(=O)N[C@@H](CCCCC)C(=O)N2CCC[C@H]2C(=O)N[C@@H](C(C)C)C(=O)N[C@@H](CC(=O)O)C(=O)N[C@H](C(=O)NCC(=O)O)CSCC(=O)N[C@@H](Cc2ccc3ccccc3c2)C(=O)N[C@@H](Cc2ccc(O)cc2)C(=O)N[C@@H](CC(=O)O)C1=O [Ex 1280] ({CH2CO}-[2Nal]YD[NHexGly]YVGRL[Ahp(2)]PVDCG-OH; thioether N-14) . Reported pIC50?
Solution: 7.47

Problem: Entry under review: CCCCCCN1CC(=O)N[C@@H](Cc2ccc(O)cc2)C(=O)N[C@@H](CCCCN)C(=O)N[C@@H](CC(=O)O)C(=O)N[C@@H](CCCN)C(=O)N[C@@H](CC(C)C)C(=O)N[C@@H](CCCCC)C(=O)N2CCC[C@H]2C(=O)N[C@@H](C(C)C)C(=O)N[C@@H](CO)C(=O)N[C@H](C(=O)NCC(=O)O)CSCC(=O)N[C@@H](Cc2ccc3ccccc3c2)C(=O)N[C@@H](Cc2ccc(O)cc2)C(=O)N[C@@H](CC(=O)O)C1=O [Ex 1289] ({CH2CO}-[2Nal]YD[NHexGly]YKD[Orn]L[Ahp(2)]PVSCG-OH; thioether N-14) . Reported pIC50?
Solution: 7.60

Problem: Entry under review: CCCCCCN1CC(=O)N[C@@H](Cc2ccc(O)cc2)C(=O)N[C@@H](CCCCN)C(=O)NCC(=O)N[C@@H](CCCN)C(=O)N[C@@H](CC(C)C)C(=O)N[C@@H](CCCCC)C(=O)N2CCC[C@H]2C(=O)N[C@@H](C(C)C)C(=O)N[C@@H](CO)C(=O)N[C@H](C(=O)NCC(=O)O)CSCC(=O)N[C@@H](Cc2ccc3ccccc3c2)C(=O)N[C@@H](Cc2ccc(O)cc2)C(=O)N[C@@H](CC(=O)O)C1=O [Ex 1288] ({CH2CO}-[2Nal]YD[NHexGly]YKG[Orn]L[Ahp(2)]PVSCG-OH; thioether N-14) . Reported pIC50?
Solution: 7.78

Problem: Entry under review: CCCCCCN1CC(=O)N[C@@H](Cc2ccc(O)cc2)C(=O)N[C@@H](C(C)C)C(=O)NCC(=O)N[C@@H](CCCNC(=N)N)C(=O)N[C@@H](CC(C)C)C(=O)N[C@@H](CCCCC)C(=O)N2CCC[C@H]2C(=O)N[C@@H](C(C)C)C(=O)N[C@@H](CC(=O)O)C(=O)N[C@H](C(=O)N[C@@H](Cc2ccc(O)cc2)C(N)=O)CSCC(=O)N[C@@H](Cc2ccc3ccccc3c2)C(=O)N[C@@H](Cc2ccc(O)cc2)C(=O)N[C@@H](CC(=O)O)C1=O [Ex 1322] ({CH2CO}-[2Nal]YD[NHexGly]YVGRL[Ahp(2)]PVDCY-NH2; thioether N-14) . Reported pIC50?
Solution: 8.26

Problem: Entry under review: CCCCCCN1CC(=O)N[C@@H](Cc2ccc(O)cc2)C(=O)N[C@@H](CCCC)C(=O)N[C@@H](CC(N)=O)C(=O)N[C@@H](CCCNC(N)=O)C(=O)N2Cc3ccccc3C[C@H]2C(=O)N[C@@H](CCCCC)C(=O)N2CCC[C@H]2C(=O)N[C@@H](C(C)C)C(=O)N[C@@H](CO)C(=O)N[C@H](C(=O)NCC(N)=O)CSCC(=O)N[C@@H](Cc2ccc3ccccc3c2)C(=O)N[C@@H](Cc2ccc(O)cc2)C(=O)N[C@@H](CC(=O)O)C1=O [Ex 1306] ({CH2CO}-[2Nal]YD[NHexGly]Y[Nle]N[Cit][Tic][Ahp(2)]PVSCG-NH2; thioether N-14) . Reported pIC50?
Solution: 7.60
